# Tested on: P12-Ichikawa
# Assay Procedure: cell viability relative to DMSO control; higher = less cytotoxic
# Test Settings: RPMI 5 mM glucose + 10% FBS; 48 h; 0.569 µM
Quick list: cell viability per entry.
Enter the number, and then the unit.

Solved cases below.
Compound | Tested On | Endpoint | Test Value
CO[C@H]1/C=C/O[C@@]2(C)Oc3c(C)c(O)c4c(O)c(c5c(nc6cc(C)ccn65)c4c3C2=O)NC(=O)/C(C)=C\C=C\[C@H](C)[C@H](O)[C@@H](C)[C@@H](O)[C@@H](C)[C@H](OC(C)=O)[C@@H]1C | P12-Ichikawa | cell viability | 94.1%
COC1=CC=CC=C1C2=CC=CC(=C2)C/3=C(O)/C4=CC(=C(Cl)C=C4NC3=O)C#N | P12-Ichikawa | cell viability | 114%

Record `C[C@@H](NC1=CC=CC=C1C(O)=O)C/2=C/C(=C\N3C(=O)/C=C(\N=C23)N4CCOCC4)C` , field cell viability: 85.7%

Record `COC1=NC(=NC(=C1N\C2=N\CCN2)Cl)C` , field cell viability: 101%

Record COC1CCC(CC1)N(C(=O)C2CCC(C)CC2)C3=C(SC(=C3)\C4=C\CCCC4)C(O)=O (stereo not given) , field cell viability: 105%

Record CC1(C)CC(=O)c2c(C(F)(F)F)nn(-c3ccc(C(N)=O)c(NC4CCC(O)CC4)c3)c2C1 (stereo not given) , field cell viability: 32.1%

Record `Nc1ccccc1NC(=O)c1ccc(CNC(=O)OCc2cccnc2)cc1` , field cell viability: 113%

Record `COc1ccc(-c2cc3nccn3c(Nc3ncccc3C(N)=O)n2)cc1OC` , field cell viability: 97.4%

----------
# System: SEM cells
# Assay Procedure: cell viability relative to DMSO control; higher = less cytotoxic
# Test Settings: RPMI 5 mM glucose + 10% dialyzed FBS; 48 h; 1.71 µM
Flag rule - cell viability less than 90% flags Fulfilled; the remaining entries get Not fulfilled.

Completed entries (count: 3):
Compound | Group
OC[C@H]1O[C@@H](O[C@@H]2[C@@H](CO)O[C@](O)(CO)[C@H]2O)[C@H](O)[C@@H](O)[C@H]1O | Not fulfilled
CCCCn1c(=O)n(Cc2ccccc2F)c(=O)c2nc(Cc3ccc(NC(C)=O)cc3)[nH]c21 | Not fulfilled
CCCC1=NC(=C2[N]1NC(=N\C2=O)/C3=CC(=CC=C3OCC)[S+]([O-])(=O)N4CCN(CC)CC4)C | Not fulfilled

Prompt line: Does this compound meet the criterion cell viability < 90%? `CC(C)(C)c1cc(NC(=O)Nc2ccc(-c3cn4c(n3)sc3cc(OCCN5CCOCC5)ccc34)cc2)no1`
Response line: Fulfilled

Prompt line: Does this compound meet the criterion cell viability < 90%? `CC(C)n1c(/C=C/[C@H](O)C[C@H](O)CC(=O)O)c(-c2ccc(F)cc2)c2ccccc21`
Response line: Not fulfilled

----------
# Tested on: P12-Ichikawa
# Assay Procedure: cell viability relative to DMSO control; higher = less cytotoxic
# Test Settings: RPMI 5 mM glucose + 10% dialyzed FBS; 48 h; 0.00234 µM
Endpoint: cell viability
Enter the number, and then the unit.

Compound | Tested On | Test Value
O=NN(CCCl)C(=O)NC1CCCCC1 | P12-Ichikawa | 105%
CC1(C)CCC[C@]2(C)[C@H]3CC(=O)O[C@]3(C)CC[C@@H]12 | P12-Ichikawa | 115%
COc1ccc(Cc2ccc(NC(N)=O)cc2)cc1-c1cccc(Cl)c1 | P12-Ichikawa | 120%

Let us move to another entry and its cell viability.
Record `CO[C@H]1/C=C/O[C@@]2(C)Oc3c(C)c(O)c4c(O)c(c5c(nc6cc(C)ccn65)c4c3C2=O)NC(=O)/C(C)=C\C=C\[C@H](C)[C@H](O)[C@@H](C)[C@@H](O)[C@@H](C)[C@H](OC(C)=O)[C@@H]1C` , field cell viability: 100%

----------
# System: SEM cells
# Assay Procedure: cell viability relative to DMSO control; higher = less cytotoxic
# Test Settings: RPMI 5 mM glucose + 10% FBS; 48 h; 0.569 µM
Endpoint: cell viability (%)
All answers are understood in %, so give the number only.

Solved cases below.
Molecule | Endpoint | Test Value
CC(C)OC(=O)OCOP(=O)(CO[C@H](C)Cn1cnc2c(N)ncnc21)OCOC(=O)OC(C)C.O=C(O)C=CC(=O)O | cell viability | 115
COc1cc2nc(N(C)CCCNC(=O)C3CCCO3)nc(N)c2cc1OC (centres undefined) | cell viability | 82.9
O=C1c2c(O)cc(O)cc2O[C@H](c2ccc(O)c(O)c2)[C@H]1O | cell viability | 122
CC[C@H](CC#N)OC(=O)N[C@@H](C)c1cccc(NC(=O)Nc2ccc(-c3cnco3)c(OC)c2)c1 | cell viability | 76.3
ClC1=C(N\C2=N\CCN2)C3=NSN=C3C=C1 | cell viability | 114
Cc1ccccc1C(C(=O)NC1CCCCC1)N(C(=O)Cn1ccnc1C)c1cccc(F)c1 (centres undefined) | cell viability | 112
COc1ccc(CC2NCCc3cc(OC)c(OC)cc32)cc1OC (centres undefined) | cell viability | 88.5
CC(C)(C)C(=O)Oc1ccc2c(c1)nc(NC(=O)c1cccc([N+](=O)[O-])c1)n2CCCO | cell viability | 114

Record `C\C1=C\C(=O)OC2=C1C=CC(=C2)O` , field cell viability: 118

----------
# Test system: SEM cells
# Assay Procedure: cell viability relative to DMSO control; higher = less cytotoxic
# Test Settings: RPMI 5 mM glucose + 10% dialyzed FBS; 48 h; 5.12 µM
Quick list: cell viability per entry.
All answers are understood in %, so give the number only.

Compound | Endpoint | Test Value
COC1=CC=CC=C1C2=CC=CC(=C2)C/3=C(O)/C4=CC(=C(Cl)C=C4NC3=O)C#N | cell viability | 21.6
COc1ccc(-c2cc3nccn3c(Nc3ncccc3C(N)=O)n2)cc1OC | cell viability | 59.3
NC[C@H]1CC[C@H](C(=O)O)CC1 | cell viability | 99.7
Cc1c(CN2CCN(C(=O)[C@H](C)O)CC2)sc2c(N3CCOCC3)nc(-c3cnc(N)nc3)nc12 | cell viability | 36.6

Record CC(C)NCC(O)COc1ccc(COCCOC(C)C)cc1 (stereo unspecified) , field cell viability: 106

Record `Nc1ccccc1NC(=O)c1ccc(CNC(=O)OCc2cccnc2)cc1` , field cell viability: 8.44

----------
# Tested on: P12-Ichikawa
# Assay Procedure: cell viability relative to DMSO control; higher = less cytotoxic
# Test Settings: RPMI 5 mM glucose + 10% dialyzed FBS; 48 h; 1.71 µM
Quick list: cell viability per entry.
All answers are understood in %, so give the number only.

Solved cases below.
Compound | Tested On | cell viability (%)
Oc1ccc2c3c1O[C@H]1c4[nH]c5c(c4C[C@@]4(O)[C@@H](C2)N(CC2CC2)CC[C@]314)C[C@@]1(O)[C@H]2Cc3ccc(O)c4c3[C@@]1(CCN2CC1CC1)[C@H]5O4 | P12-Ichikawa | 122
COC1=CC=CC=C1C2=CC=CC(=C2)C/3=C(O)/C4=CC(=C(Cl)C=C4NC3=O)C#N | P12-Ichikawa | 94
OC[C@H]1O[C@@H](O[C@@H]2[C@@H](CO)O[C@](O)(CO)[C@H]2O)[C@H](O)[C@@H](O)[C@H]1O | P12-Ichikawa | 91.5

Let us move to another entry and its cell viability.
Record COc1cccc2cc(-c3nc(C4CCC(C(=O)O)CC4)n4ncnc(N)c34)[nH]c12 (centres undefined) , field cell viability: 26.5

----------
# System: P12-Ichikawa
# Assay Procedure: cell viability relative to DMSO control; higher = less cytotoxic
# Test Settings: RPMI 5 mM glucose + 10% FBS; 48 h; 0.00702 µM
Endpoint: cell viability (%)
All answers are understood in %, so give the number only.

Solved cases below.
Structure Notation | cell viability / %
COc1ccc(C[C@@H](C)[C@@H](C)Cc2ccc(OC)c(OC)c2)cc1OC | 98.3
O=C(OC)[C@]12CC[C@@]3(C)[C@]4(C)CC[C@H]5[C@@](C)(C)C(=O)C(=C[C@]5(C)C4=CC(=O)[C@@H]3[C@@H]2C[C@](C)(C)CC1)C#N | 97.1
CC[C@H](CC[C@@H](C)[C@H]1CC[C@H]2[C@@H]3C\C=C/4C[C@@H](O)CC[C@]4(C)[C@H]3CC[C@]12C)C(C)C | 120

Record `C[C@H]1[C@H](NC(=O)/C(=N/OC(C)(C)C(=O)O)c2csc(N)n2)C(=O)N1[S+](=O)([O-])O` , field cell viability: 97.1

----------
# Tested on: SEM cells
# Assay Procedure: AUC of viability dose-response curve (% viability x log10 dose units); higher = less sensitive
# Test Settings: RPMI 5 mM glucose + 10% dialyzed FBS; 48 h
Endpoint: AUC of viability dose-response curve

Solved cases below.
Compound | Tested On | AUC of viability dose-response curve
CC[C@H](CC#N)OC(=O)N[C@@H](C)c1cccc(NC(=O)Nc2ccc(-c3cnco3)c(OC)c2)c1 | SEM cells | 408
COC(=O)Nc1ccc(-c2nc(N3CCOCC3)c3cnn(C4CCN(C(=O)OC)CC4)c3n2)cc1 | SEM cells | 382
COc1ccc(CC2NCCc3cc(OC)c(OC)cc32)cc1OC (stereo unspecified) | SEM cells | 403
COc1cc2c(cc1-c1c(C)noc1C)ncc1[nH]c(=O)n([C@H](C)c3ccccn3)c12 | SEM cells | 323
OC1=CC=C(C=C1)\C2=C\OC3=C(C=CC(=C3)O)C2=O | SEM cells | 467

So the reported AUC of viability dose-response curve for `O=C(Nc1ccccc1Br)N[C@@H]1CCN(c2ccc(C(F)(F)F)cn2)C1` , on SEM cells, turned out to be 469

So the reported AUC of viability dose-response curve for `Cn1cc(CNCC2CCN(c3ncc(C(=O)NO)cn3)CC2)c2ccccc21` , on SEM cells, turned out to be 239

So the reported AUC of viability dose-response curve for `C=CC(=O)Nc1cccc(Oc2nc(Nc3ccc(N4CCN(C)CC4)cc3)ncc2Cl)c1` , on SEM cells, turned out to be 351

So the reported AUC of viability dose-response curve for CCCNC(=O)[C@H]1O[C@@H]1C(=O)N[C@H](C(=O)N1CCC[C@H]1C(=O)OC)C(C)CC (stereo partly specified) , on SEM cells, turned out to be 433

So the reported AUC of viability dose-response curve for `CCCC1=NC(=C2[N]1NC(=N\C2=O)/C3=CC(=CC=C3OCC)[S+]([O-])(=O)N4CCN(CC)CC4)C` , on SEM cells, turned out to be 401

Reference source: the supplement of paper PMC11451515
